# system: T1, Abp1, P15891
# T1 sequence (P15891 535-592, looked up): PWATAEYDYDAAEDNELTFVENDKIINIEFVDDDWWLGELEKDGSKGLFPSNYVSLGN
# assay-remarks: SPOT array
# measurement-conditions: median of control spots 935
Reported SPOT intensity values are given for each entry in this list.

VNIPSPSSSPPPIPK
1
VQPTAAPATPPRHIS
0
AAAPKHAPPPVPNET
0

input: Could you share which SPOT intensity value was measured for ERPKRRAPPPVPKKP ?
output: 673

input: Could you share which SPOT intensity value was measured for NPTKSPPPPPSPSTM ?
output: 28
